Each entry below carries its reported Library fraction.
- target desc: TLR10 (Homo sapiens)
- Sequence (Q9BXR5 20-576): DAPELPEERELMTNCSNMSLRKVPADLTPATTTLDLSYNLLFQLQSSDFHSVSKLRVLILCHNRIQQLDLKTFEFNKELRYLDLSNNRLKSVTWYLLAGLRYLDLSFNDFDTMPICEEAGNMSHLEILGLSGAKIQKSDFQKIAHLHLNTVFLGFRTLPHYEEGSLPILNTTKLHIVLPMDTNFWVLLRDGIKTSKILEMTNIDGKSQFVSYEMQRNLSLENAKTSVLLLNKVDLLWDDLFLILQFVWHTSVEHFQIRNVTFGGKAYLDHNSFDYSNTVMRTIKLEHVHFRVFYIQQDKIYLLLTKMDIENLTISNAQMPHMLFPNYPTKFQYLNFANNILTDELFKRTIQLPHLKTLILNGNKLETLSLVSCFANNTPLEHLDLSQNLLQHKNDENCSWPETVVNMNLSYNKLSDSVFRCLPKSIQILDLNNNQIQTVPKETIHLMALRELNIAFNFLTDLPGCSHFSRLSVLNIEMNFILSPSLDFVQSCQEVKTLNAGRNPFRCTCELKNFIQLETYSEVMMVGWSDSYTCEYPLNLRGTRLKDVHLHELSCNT
- assay text: mRNA display affinity selection against TLR10, NGS abundance
- Format: binding
- Set-up: Chimera protein (extracellular domain, amino acid 20-576;); Fc (chimera); purchased R&D system #6619-TR-050
- test settings: TLR10 selection pulldown (-); Top100 selection hits, NGS
property name: Library fraction

• STIVFTFQCIKG = 0.008
• AMKLSARYIAF = 0.00072
• AINFELTNKIAF = 0.013
• SKIIIRGQGIRG = 0.00238
• RSPIPSWG = 0.00043
• ALVTQHVNVY = 0.00162
• TIRFTNQNKIAF = 0.095
• IGKVYVHSS = 0.00092
• SMCVWARQKIVG = 0.00054
• AQMYPIQNKIAF = 0.00063
• SVCVYQHQGIRG = 0.010
• SMLFRLANKIAF = 0.040
• TCFSHYLIM = 0.002
• IGSVFIKSS = 0.003
• SRTNRFGGHMAS = 0.008
• SIMFALQQKLLF = 0.00189
• TFLGGNVRAWI = 0.00088
• CMSFYLQRKIAI = 0.00142
• TMMFPHQRKLAF = 0.009
• SIWFPLQRKIAA = 0.026
• TLHFRRQNKIAY = 0.011
• ALKFELLRKVAF = 0.00278
• SNIVWCGQGIIG = 0.077
• IGNVCVVSS = 0.004
• TNPYGGNITM = 0.00949
• SRIIYMNQSIRG = 0.00043
• SLELKHIVFH = 0.00222
• TMCFTFSKMVAF = 0.00058
• SVEVWVNQKIRG = 0.003
• SVPFPLQRKLVF = 0.00118
• SICFASQRLLAF = 0.00149
• IGRVCIRSS = 0.00147
• TILFPLQRRLVV = 0.0018
• IGRLFVKSS = 0.00284
• CMIFHTQLKIAF = 0.004
• IGNVCIRSS = 0.0008
• RIETARLVIL = 0.00141
• GCLHGNVPVYY = 0.00272
• SITFQTLNKIAY = 0.006
• IGLVRIKSS = 0.00155
• AIYNRYGGNIAS = 0.00153
• IGRVMIKSS = 0.007

Provenance of the data: paper PMC10683472
